- assay.protocol: NCI Yeast Anticancer Drug Screen. Data for the cln2 rad14 strain (AID 165);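 note: 0% = growth equal to vehicle treated cultures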
- condition.notes: S. cerevisiae cln2 rad14 strain, at 50.0 µM, hits give high values
Compounds without any hit were thinned out: in the full panel of roughly 79,000, 15% have a hit.
Binary call on growth inhibition: yes (1) from 30% upward, no (0) beneath that.

>  <compound>
[Cl][Pt+2][Cl].c1ccc(CC2CC[N-]CC2)cc1.c1ccc(CC2CC[N-]CC2)cc1

>  <discrete.label>
no (0)

$$$$
>  <compound>
CC(C)OC(=O)C(C)Br (stereo not given)

>  <discrete.label>
no (0)

$$$$
>  <compound>
COc1ccc([As](O[As](c2ccc(OC)cc2)c2ccc(OC)cc2)c2ccc(OC)cc2)cc1

>  <discrete.label>
yes (1)

$$$$
>  <compound>
CC12OOC(c3ccccc31)c1c2ccc2ccccc12 (stereo not given)

>  <discrete.label>
yes (1)

$$$$
>  <compound>
C1CN([PH+](N2CC2)N2CC2)CCO1.[C-]#[O+].[C-]#[O+].[C-]#[O+].[C-]#[O+].[C-]#[O+].[Mo]

>  <discrete.label>
no (0)

$$$$
>  <compound>
COC(=O)[CH2][Sn]([CH2]C(=O)OC)([c]1ccccc1)[c]1ccccc1

>  <discrete.label>
yes (1)

$$$$
>  <compound>
O=C(Nc1ccccc1)C(Cl)(Cl)Cl

>  <discrete.label>
no (0)

$$$$
>  <compound>
CCc1ccccc1C(C(=O)NC1CN2CCC1CC2)c1ccsc1 (stereo not given)

>  <discrete.label>
no (0)

$$$$
>  <compound>
CC1(C)N=C(N)N=C(N)N1c1ccc(CCc2ccc(S(=O)(=O)F)c(Cl)c2)c(Cl)c1

>  <discrete.label>
yes (1)

$$$$

====

- assay.protocol: NCI Yeast Anticancer Drug Screen. Data for the sgs1 mgt1 strain (AID 161);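 note: 0% = growth of cultures given vehicle only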
- condition.notes: S. cerevisiae sgs1 mgt1 strain, at 50.0 µM
This is part of a sample that, as a whole, favours compounds with a hit. Of some 79,000 tested, about 15% had one in any assay. Active and inactive are the calls of the source. Cut-off read from the data, not from the text of the source: active = growth inhibition above about 70%; inactive = the rest.
Labels: active, inactive

>  <molecule>
O=C(O)C(CSC(c1ccccc1)(c1ccccc1)c1ccccc1)N=Cc1cccs1 (configuration not stated)

>  <discrete.label>
inactive

$$$$
>  <molecule>
O=C1CCN2CCCC1C2 (configuration not stated)

>  <discrete.label>
inactive

$$$$
>  <molecule>
CC/C=C/c1cc2c(cc1O)CCC1C2CC[C@@]2(C)C1CC[C@@H]2O (some centres not stated)

>  <discrete.label>
active

$$$$
>  <molecule>
CNCCc1c[nH]c2ccc(O)cc12

>  <discrete.label>
inactive

$$$$
>  <molecule>
CC(CC(C)(C)C)C(=O)Cl (configuration not stated)

>  <discrete.label>
inactive

$$$$
>  <molecule>
Clc1cc[c]([Tl][c]2ccc(Cl)cc2)cc1

>  <discrete.label>
active

$$$$
>  <molecule>
CC1OP(=S)(N2C(=O)c3ccccc3C2=O)OC2CCCCC12 (configuration not stated)

>  <discrete.label>
inactive

$$$$

====

- assay.protocol: NCI Yeast Anticancer Drug Screen. Data for the mec2-1 strain (AID 157)
- condition.notes: S. cerevisiae mec2-1 strain, at 50.0 µM, hits give high values
This is part of a sample that, as a whole, favours compounds with a hit. Of some 79,000 tested, about 15% had one in any assay.
Overview of recorded growth inhibition for various compounds

>  <compound>
COC1=C(OC)C23CCc4ccc(OC)c(O)c4C2(CCN3)CC1=O (centres undefined)

>  <growth inhibition, %>
-10.7

$$$$
>  <compound>
CP(O)(=S)C1CCCCC1 (centres undefined) (tested in a mixture with another compound)

>  <growth inhibition, %>
1.1

$$$$
>  <compound>
CC1CCC(OC(=O)CCl)CC1 (centres undefined)

>  <growth inhibition, %>
19.4

$$$$
>  <compound>
CCC1(O)C(=O)OCc2c1cc1n(c2=O)Cc2cc3cc4c(cc3nc2-1)OCO4 (centres undefined)

>  <growth inhibition, %>
86.3

$$$$
>  <compound>
O=C1NC(=O)C(CC(Br)CBr)(c2ccccc2)C(=O)N1 (centres undefined)

>  <growth inhibition, %>
-1.45

$$$$
>  <compound>
c1ccc(-c2ccc[n+](CCC[n+]3cccc(-c4ccccn4)c3)c2)nc1

>  <growth inhibition, %>
2.45

$$$$
>  <compound>
[O-]c1n[n+](C2CCCCC2)no1

>  <growth inhibition, %>
-7.6

$$$$
>  <compound>
COC1=CC(=Nc2ccc(N(CCCl)CCCl)cc2)C=CC1=O

>  <growth inhibition, %>
26.8

$$$$
>  <compound>
Clc1ccc(Cl)c(Cl)c1

>  <growth inhibition, %>
99

$$$$
>  <compound>
CCOc1ccc(Nc2nc(=O)[nH]c3ccccc23)cc1CN(CCCl)CCCl

>  <growth inhibition, %>
0.95

$$$$
>  <compound>
C(#Cc1ccccc1)c1ccccc1

>  <growth inhibition, %>
5.25

$$$$
>  <compound>
COc1cc2c(c(Oc3ccc(C)cc3)c1)CN(C)CC2

>  <growth inhibition, %>
19.3

$$$$
>  <compound>
C1CC[N-]CC1.C1CC[N-]CC1.[Cl][Pd][Cl]

>  <growth inhibition, %>
8.8

$$$$
>  <compound>
NC(CCOCCP(=O)(O)O)C(=O)O (centres undefined)

>  <growth inhibition, %>
-36.4

$$$$
>  <compound>
COc1ccc2c(c1O)[C@@]13CCN(C)[C@@H](C2)[C@H]1CC(C)C(=O)C3 (some centres undefined)

>  <growth inhibition, %>
-30.6

$$$$
>  <compound>
CCCCCCNC(=O)C(C)Br (centres undefined)

>  <growth inhibition, %>
4.9

$$$$
>  <compound>
O=[N+]([O-])c1cc[n+]([O-])c2ccccc12

>  <growth inhibition, %>
53.9

$$$$
>  <compound>
CCC(CC)(COC(=O)C(O)(c1ccccc1)c1ccccc1)C[N+](C)(C)C

>  <growth inhibition, %>
-2.85

$$$$
>  <compound>
CC(C)c1ccccc1OP(=S)(S)Oc1ccccc1C(C)C

>  <growth inhibition, %>
2.75

$$$$
>  <compound>
[N-]=[N+]=NP1(=O)OC(c2ccccc2)=CCN1c1ccccc1 (centres undefined)

>  <growth inhibition, %>
-9.5

$$$$
>  <compound>
CC(C)Oc1ccccc1OC(=O)N(C)C=O

>  <growth inhibition, %>
-2.7

$$$$
>  <compound>
CCN1CCC(O)(c2ccc(Cl)cc2)C(C(=O)c2ccc(Cl)cc2)C1 (centres undefined)

>  <growth inhibition, %>
97.8

$$$$
>  <compound>
CC(=O)[C-](Cl)C(C)=O.CC(=O)[C-](Cl)C(C)=O.CC(=O)[C-](Cl)C(C)=O.[Ru+3]

>  <growth inhibition, %>
84.8

$$$$
>  <compound>
Cc1ccc(NC2=NCCS2)cc1Cl

>  <growth inhibition, %>
7.15

$$$$
